target: LXRb:RXRa (Homo sapiens, UniProt P55055;P19793 full;full)
Sequence (P55055 whole entry, chain 1 of 2): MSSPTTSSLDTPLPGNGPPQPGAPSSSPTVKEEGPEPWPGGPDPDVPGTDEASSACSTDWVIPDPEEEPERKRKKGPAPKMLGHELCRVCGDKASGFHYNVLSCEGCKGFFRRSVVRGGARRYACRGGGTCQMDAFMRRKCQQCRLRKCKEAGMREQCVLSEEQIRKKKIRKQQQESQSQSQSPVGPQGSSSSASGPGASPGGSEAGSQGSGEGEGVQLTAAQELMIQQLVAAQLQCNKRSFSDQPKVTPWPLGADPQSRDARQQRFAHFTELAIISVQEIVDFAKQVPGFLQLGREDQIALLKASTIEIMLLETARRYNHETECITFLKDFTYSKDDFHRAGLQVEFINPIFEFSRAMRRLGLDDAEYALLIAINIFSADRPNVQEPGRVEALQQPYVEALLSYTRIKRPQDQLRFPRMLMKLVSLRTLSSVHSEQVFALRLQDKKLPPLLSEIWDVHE
Sequence (P19793 whole entry, chain 2 of 2): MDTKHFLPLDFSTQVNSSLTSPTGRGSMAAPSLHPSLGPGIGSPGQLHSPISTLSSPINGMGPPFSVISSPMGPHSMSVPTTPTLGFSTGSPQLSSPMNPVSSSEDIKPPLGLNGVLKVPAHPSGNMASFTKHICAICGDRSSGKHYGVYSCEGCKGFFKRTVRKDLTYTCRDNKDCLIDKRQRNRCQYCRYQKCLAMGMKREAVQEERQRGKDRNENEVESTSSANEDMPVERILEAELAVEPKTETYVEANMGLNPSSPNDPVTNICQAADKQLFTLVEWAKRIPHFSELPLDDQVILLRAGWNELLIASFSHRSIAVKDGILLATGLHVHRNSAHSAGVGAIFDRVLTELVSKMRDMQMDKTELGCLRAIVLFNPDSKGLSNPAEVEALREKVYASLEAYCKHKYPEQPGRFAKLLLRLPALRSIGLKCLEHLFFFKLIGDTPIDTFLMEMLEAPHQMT
protocol-details: no ligand; PBM; 270 nM : 90 nM RXRa; PBS pH 7.4, 2% milk, 0.02% Triton X-100, 1 mM DTT, BSA, 0.4 mg/ml salmon testes DNA
condition-info: tags: His kept;His cleaved; copies: 1;1; label: surface-attached array probe
outcome-measure: binding signal

Ask: Query (binder): NRC3_wobSeed88_DR3_C21T_o1 (dsDNA) DNA 1: GCTAGCCTAGGTCATGCGGGTCAGTATAGTGTCGGCGCGATTGACAGCGTAGAATGAAGG DNA 2: CCTTCATTCTACGCTGTCAATCGCGCCGACACTATACTGACCCGCATGACCTAGGCTAGC ; field requested: binding signal
Result: 3 PBM z-score against 500 random probes
